Where do these numbers come from? They come from patent US11466066B2.

# Tested on: MFc7 mouse renal myofibroblasts
# experimental.protocol: MFc7 bioassay
# Type: cell-based
# condition.summary: EC50 of wild type BMP7 protein/EC50 of the variant; single amino acid change (Table 4)
# From the text: MFc7 mouse renal myofibroblasts (mouse kidney fibroblast cell line) may be maintained under routine cell culture conditions in OPTI-MEM/10% FBS medium. The cells may be plated in 10 cm tissue culture plates at a seeding density of 500,000 cells/plate. […] The absorbance at 405 nm may be read utilizing a plate reader. […]
Strictly below 8 in Average Relative Potency: Fulfilled. Otherwise: Not fulfilled.

Would you please look over these solved cases?
molecule	class.label
I86V: SEQ ID NO: 2 having the single amino acid mutation I86V (protein, listed as Homo sapiens) STGSKQRSQNRSKTPKNQEALRMANVAENSSSDQRQACKKHELYVSFRDLGWQDWIIAPEGYAAYYCEGECAFPLNSYMNATNHAVVQTLVHFINPETVPKPCCAPTQLNAISVLYFDDSSNVILKKYRNMVVRACGCH	Not fulfilled
E60Q: SEQ ID NO: 2 having the single amino acid mutation E60Q (protein, listed as Homo sapiens) STGSKQRSQNRSKTPKNQEALRMANVAENSSSDQRQACKKHELYVSFRDLGWQDWIIAPQGYAAYYCEGECAFPLNSYMNATNHAIVQTLVHFINPETVPKPCCAPTQLNAISVLYFDDSSNVILKKYRNMVVRACGCH	Fulfilled
F93V: SEQ ID NO: 2 having the single amino acid mutation F93V (protein, listed as Homo sapiens) STGSKQRSQNRSKTPKNQEALRMANVAENSSSDQRQACKKHELYVSFRDLGWQDWIIAPEGYAAYYCEGECAFPLNSYMNATNHAIVQTLVHVINPETVPKPCCAPTQLNAISVLYFDDSSNVILKKYRNMVVRACGCH	Not fulfilled
A37P: SEQ ID NO: 2 having the single amino acid mutation A37P (protein, listed as Homo sapiens) STGSKQRSQNRSKTPKNQEALRMANVAENSSSDQRQPCKKHELYVSFRDLGWQDWIIAPEGYAAYYCEGECAFPLNSYMNATNHAIVQTLVHFINPETVPKPCCAPTQLNAISVLYFDDSSNVILKKYRNMVVRACGCH	Fulfilled
I86L: SEQ ID NO: 2 having the single amino acid mutation I86L (protein, listed as Homo sapiens) STGSKQRSQNRSKTPKNQEALRMANVAENSSSDQRQACKKHELYVSFRDLGWQDWIIAPEGYAAYYCEGECAFPLNSYMNATNHALVQTLVHFINPETVPKPCCAPTQLNAISVLYFDDSSNVILKKYRNMVVRACGCH	Fulfilled

--- query ---
Identify whether the molecule T89A: SEQ ID NO: 2 having the single amino acid mutation T89A (protein, listed as Homo sapiens) STGSKQRSQNRSKTPKNQEALRMANVAENSSSDQRQACKKHELYVSFRDLGWQDWIIAPEGYAAYYCEGECAFPLNSYMNATNHAIVQALVHFINPETVPKPCCAPTQLNAISVLYFDDSSNVILKKYRNMVVRACGCH records Average Relative Potency below 8.
Fulfilled
